B1: RSPH3 (parent)
chain: QRLEEQERRHREEKERRKKQQWEI

variants of: B1; assay: protein stability index of a GFP-peptide fusion (GPS, HEK-293T) (PSI 1-6); higher = more stable; settings: c terminus: a fixed tail appended;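 note: lentivirally expressed fusions sorted by FACS into six bins by GFP to DsRed ratio, PSI derived from sequencing read proportions per bin multiplied by bin number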
# protein stability index per record follows
Just the number, please, no unit attached.

QRLEEQERRHREEKERRKKQQWEP [I24P]	5
QRLEEKERRHREEKERRKKQQWEI [Q6K]	4.19
QRLEEQERRHREEKERRKKQEWEI [Q21E]	5.39
QRLEEQERRHSEEKERRKKQQWEI [R11S]	4.35
QRLEDQERRHREEKERRKKQQWEI [E5D]	4.55

Record QRLEEQERRHREEKERRKIQQWEI [K19I] , field protein stability index: 4.08

Record QRLEEQERRHREEKERRKKQQWRI [E23R] , field protein stability index: 4.69

Record QRLDEQERRHREEKERRKKQQWEI [E4D] , field protein stability index: 4.56

Record QRLEEWERRHREEKERRKKQQWEI [Q6W] , field protein stability index: 4.18

Record QRLEEQERRHREEKERRKKQQWWI [E23W] , field protein stability index: 3.67

Record QRLEEQERRHRELKERRKKQQWEI [E13L] , field protein stability index: 3.95

Record QRLEEQERRHREEQERRKKQQWEI [K14Q] , field protein stability index: 4.26
